src = patent US5387109A

Test system: fructosylamine deglycase
Experiment: Influence by inhibitors on the enzyme
Format: biochemical, Candida guilliermondii 7087
Conditions: 2 mM inhibitor; 10 mM phosphate buffer pH 6.0; 37° C., 4 minutes
Experimental: The influence of a 2 mM inhibitor on the enzyme was as follows: […]
test readout: Inhibition of the enzyme

molecule="[Cu+2] [Cu^2+]" test_value="strongly inhibited"
molecule="[Mg+2] [Mg^2+]" test_value="not inhibited"
molecule="O=C(O)c1cc[c]([Hg][Cl])cc1 [p-chloromercuribenzoic acid]" test_value="strongly inhibited"
molecule="[Co+2] [Co^2+]" test_value="strongly inhibited"
molecule="[Zn+2] [Zn^2+]" test_value="strongly inhibited"
molecule="[N-]=[N+]=[N-].[Na+] [NAN3]" test_value="not inhibited"
molecule="[Ni+2] [Ni^2+]" test_value="strongly inhibited"
